- experiment: Plasma pharmacokinetics of MB076 after single IV dose in thigh-infected mice
- Type: in vivo, mouse
- runParameters: mouse; 25 mg/kg single IV, plasma, thigh-infected mice; read-out: AUClast
reportedMetric: AUC(0-t) (ng·h/mL)
All answers are understood in ng·h/mL, so give the number only.

Give me measured AUC(0-t), please, for this compound: Nc1nnc(SCC(=O)N[C@@H](Cn2cc(C(=O)O)nn2)B(O)O)s1
17600

---

- experiment: Plasma pharmacokinetics of MB076 after single IV dose in thigh-infected mice
- Assay type: in vivo, mouse
- runParameters: mouse, plasma, iv, 50 mg/kg, 50 mg/kg single IV, thigh-infected mice
reportedMetric: half-life (min)
Lab book: enter the figure in min, no units written.

Supply recorded half-life for Nc1nnc(SCC(=O)N[C@@H](Cn2cc(C(=O)O)nn2)B(O)O)s1 here.
25.8
